These entries and their values trace back to PubChem BioAssay.

- PROTOCOL: RAM signaling pathway blockade in yeast – S. cerevisiae, Pdr1DBD-CYC8 efflux-inhibited sensitized strain, primary screen (AID 1298);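 note: 0% = DMSO untreated cells without growth and 100% = 10 µM 1-NA-PP1 full growth; higher means more yeast growth rescued from 5-FOA killing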
- CONDITION NOTES: S. cerevisiae cbk1-as DSE1-URA3 strain, 5-FOA growth OD615, 2 d; at 50 µM; stronger effect = higher value
RAM network inhibition values, listed per item
The response must be a number in % with no trailing unit.

Hello, please tell me recorded RAM network inhibition for this one: CCc1c(C(C)O)oc2ccc3c(C)cc(=O)oc3c12 (stereo unspecified) 6.56

====

- PROTOCOL: OD615 S. cerevisiae growth inhibition, permissive medium, pilot counter-assay, permissive growth control for S. cerevisiae lifespan shortening project (AID 705)
- CONDITION NOTES: OD615, 24 h, at 10 µM, stronger effect = higher value
growth inhibition values, listed per item
The response must be a number in % with no trailing unit.

COMPOUND: Cc1ccccc1N(CC(=O)NCCSCc1ccco1)S(C)(=O)=O
U: %
RECORDED RESULT: -4.43
//
COMPOUND: O=C(Nn1nnnc1Nc1ccccc1)C12CC3CC(CC(C3)C1)C2
U: %
RECORDED RESULT: -3.62

Hello, please tell me recorded growth inhibition for this one: "CN(C(=O)CSc1nc(N)nn1-c1ccccc1)c1ccccc1" -7.03

Hello, please tell me recorded growth inhibition for this one: "COc1cccc(N(CC(=O)NCc2cccnc2)S(C)(=O)=O)c1" -11.3

Hello, please tell me recorded growth inhibition for this one: CCN1CCCC1CNC(=O)c1cc2c(-c3ccc(Cl)cc3)nn(C)c2s1 (centres undefined) -7.45

Hello, please tell me recorded growth inhibition for this one: "COc1ccc(N2CCN(Cc3nc4c(c(=O)[nH]c(=O)n4C)n3Cc3cccc(Cl)c3)CC2)cc1" -9.21

Hello, please tell me recorded growth inhibition for this one: CCOC(=O)C1=C(C)NC(=O)CC1c1cc2c(cc1Br)OCO2 (centres undefined) 1.83

Hello, please tell me recorded growth inhibition for this one: CC(C)CNC1=CC(=O)CC(c2ccco2)C1 (centres undefined) -13

Hello, please tell me recorded growth inhibition for this one: "CCOC(=O)N1CCC(N2C(=O)c3ccc(C(=O)NCc4ccc(F)cc4)cc3C2=O)CC1" -0.31

Hello, please tell me recorded growth inhibition for this one: "COC(=O)c1ccc(N2CCOCC2)c(NC(=O)Nc2cccc(OC)c2)c1" -14.5

Hello, please tell me recorded growth inhibition for this one: "Cc1ccc(Sc2oc(/C=N/n3cnnc3)cc2Br)cc1" 0.63

Hello, please tell me recorded growth inhibition for this one: Cc1nn(-c2ccccc2)c2c1C(c1ccncc1)C(C#N)=C(N)O2 (centres undefined) -12.9

Hello, please tell me recorded growth inhibition for this one: "CCOc1ccc(N(CC(=O)NCc2ccccc2)S(=O)(=O)c2c(C)noc2C)cc1" -21.6

Hello, please tell me recorded growth inhibition for this one: "CCN(CC)CCNC(=O)c1sc2nc(-c3ccccc3)cn2c1C" -2.38

Hello, please tell me recorded growth inhibition for this one: COc1cccc(CNC(=O)c2ccc(NC(=O)C3CCCO3)cc2)c1 (centres undefined) -23.1

Hello, please tell me recorded growth inhibition for this one: "O=C(OCCCCN1C(=O)c2ccccc2C1=O)c1ccc(S(=O)(=O)N2CCCC2)cc1" -11.7

Hello, please tell me recorded growth inhibition for this one: "Nc1c(S(=O)(=O)c2ccccc2)c2nc3ccccc3nc2n1/N=C/c1ccco1" -7.84

Hello, please tell me recorded growth inhibition for this one: COC(=O)C1=COC(C)C2CN3CCc4c([nH]c5ccccc45)C3CC12 (centres undefined) -14.5

====

- PROTOCOL: OD615 S. cerevisiae growth inhibition, permissive medium, pilot counter-assay, permissive growth control for S. cerevisiae lifespan shortening project (AID 705)
- CONDITION NOTES: OD615, 24 h, at 10 µM, stronger effect = higher value
growth inhibition values, listed per item
The response must be a number in % with no trailing unit.

COMPOUND: CCOC(=O)CSC1=C(C#N)C(c2ccc(Cl)cc2)CC(=O)N1 (stereo unspecified)
U: %
RECORDED RESULT: -15.6

COMPOUND: O=C1CC(c2ccco2)Sc2nc3ccccc3n21 (stereo unspecified)
U: %
RECORDED RESULT: -10.5

COMPOUND: O=C1CCC(=O)N1CNc1cccnc1
U: %
RECORDED RESULT: -7.25

Hello, please tell me recorded growth inhibition for this one: COc1ccc(-c2nc(CS(=O)CC(=O)N3CCc4ccccc4C3)c(C)o2)cc1 (stereo unspecified) 2.66

Hello, please tell me recorded growth inhibition for this one: "CC(C)Cn1c(CNC(=O)c2ccccc2)nc2ccccc21" -4.34

Hello, please tell me recorded growth inhibition for this one: C=CCn1c(NC(C)c2cc(Cl)ccc2O)nc2ccccc21 (stereo unspecified) -8.04

====

RAM network inhibition values, listed per item
- PROTOCOL: RAM signaling pathway blockade in yeast – S. cerevisiae, Pdr1DBD-CYC8 efflux-inhibited sensitized strain, primary screen (AID 1298);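 note: 0% = DMSO untreated cells without growth and 100% = 10 µM 1-NA-PP1 full growth; higher means more yeast growth rescued from 5-FOA killing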
- CONDITION NOTES: S. cerevisiae cbk1-as DSE1-URA3 strain, 5-FOA growth OD615, 2 d; at 50 µM; stronger effect = higher value
The response must be a number in % with no trailing unit.

MOLECULE: O=C(Nc1nnc(-c2cccs2)o1)c1ccco1
U: %
RAM network inhibition: -2.19

MOLECULE: CCOC(=O)N1CCC(N2Cc3cccc(C(=O)Nc4ccc(OC)c(OC)c4)c3C2=O)CC1
U: %
RAM network inhibition: 1.98

MOLECULE: Cc1cc(C)n(-c2nc3ccccc3nc2Nc2ccc(CC(=O)O)cc2)n1
U: %
RAM network inhibition: -2.71

MOLECULE: COCCN(CCOC)C(=O)c1cc2sc3ccccc3c2s1
U: %
RAM network inhibition: 0.31

MOLECULE: CCOc1ccc(NC(=O)N(C2CCCCC2)C2CCN(C(C)=O)CC2)cc1
U: %
RAM network inhibition: 3.05

MOLECULE: CCOC(=O)C1CCCN(C(=O)c2cc3c(=O)n(C)c4ccccc4c3n2C)C1 (centres undefined)
U: %
RAM network inhibition: -0.46

Hello, please tell me recorded RAM network inhibition for this one: "c1ccc(CN2CCN(c3nc4ccccc4n4cnnc34)CC2)cc1" 2.12

Hello, please tell me recorded RAM network inhibition for this one: "Cc1nn2cc(-c3ccccc3)nc2s1" 4.7

Hello, please tell me recorded RAM network inhibition for this one: "Cc1nn(C(=O)CN2C(=O)c3ccccc3C2=O)c(C)c1Br" 4.29

====

- PROTOCOL: inhibitors of the yeast RAM network, pilot screen, dse1pr::URA3 reporter, 5-FOA selection (AID 869);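 note: 0% = DMSO wells with no growth and 100% = 10 µM 1-NA-PP1 with full growth; RAM network block rescues cells from 5-FOA so hits raise OD615 growth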
- CONDITION NOTES: S. cerevisiae dse1pr::URA3 5-FOA growth, OD615, 2 d; at 10 µM; stronger effect = higher value; strain carries analog-sensitive mutant Cbk1 kinase
Measured inhibition determines class: Low (below 0.5%), Medium (0.5% to below 2%), High (2% or more)

// below: answered compounds
COMPOUND: Cc1nc2ccc(S(=O)(=O)NC(C(=O)NCc3ccco3)C(C)C)cc2s1 (stereo not given)
QUALITATIVE LABEL: Medium

COMPOUND: COc1ccccc1C(=O)N(Cc1nc(-c2ccc(Cl)cc2)no1)C(C)C
QUALITATIVE LABEL: Medium

COMPOUND: Cc1cc(NC(=O)NC2(C(F)(F)F)Oc3ccc(Cl)cc3O2)no1 (stereo not given)
QUALITATIVE LABEL: High

COMPOUND: O=C(NCc1ccco1)C1CCN(c2nc3ccccc3n2Cc2ccc(F)cc2)CC1
QUALITATIVE LABEL: Low

COMPOUND: O=C(NCc1cn2ccccc2n1)c1ccc(Br)o1
QUALITATIVE LABEL: High

Consider the record given below.
// bin(item) where item = "CCN(CC)CCNC(=O)c1cn(CC)c2ccc(S(=O)(=O)N(C)C)cc2c1=O" High

====

inhibition values, listed per item
- PROTOCOL: inhibitors of the yeast RAM network, pilot screen, dse1pr::URA3 reporter, 5-FOA selection (AID 869);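 note: 0% = DMSO wells with no growth and 100% = 10 µM 1-NA-PP1 with full growth; RAM network block rescues cells from 5-FOA so hits raise OD615 growth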
- CONDITION NOTES: S. cerevisiae dse1pr::URA3 5-FOA growth, OD615, 2 d; at 10 µM; stronger effect = higher value; strain carries analog-sensitive mutant Cbk1 kinase
The response must be a number in % with no trailing unit.

Hello, please tell me recorded inhibition for this one: CCOc1ccc(C2NC(=O)c3n[nH]c(C)c32)cc1 (stereo not given) 1.07

Hello, please tell me recorded inhibition for this one: CC1(C)CC(=O)C2=C(C1)Nc1ccccc1NC2c1nc2ccccc2[nH]1 (stereo not given) 1.65

Hello, please tell me recorded inhibition for this one: "Cn1c(SCc2c(F)cccc2Cl)nnc1-c1cnccn1" 1.94

Hello, please tell me recorded inhibition for this one: "COC(=O)c1ccsc1NC(=O)c1ccc2c(c1)OCCO2" 1.8

Hello, please tell me recorded inhibition for this one: "Cn1cccc1Cc1nnc(SCC(=O)NC2CCCCC2)n1-c1ccc(F)cc1" 1.08

Hello, please tell me recorded inhibition for this one: Cc1ccc(-c2nc(CS(=O)CC(=O)NCCCN3CC(C)CC(C)C3)c(C)o2)cc1 (stereo not given) 0.255

Hello, please tell me recorded inhibition for this one: O=C1CSC(c2nn(-c3ccccc3)cc2-c2cc3ccccc3oc2=O)N1Cc1ccco1 (stereo not given) 2.16

Hello, please tell me recorded inhibition for this one: CC(C)(C)NC(=O)C1CCCN(S(=O)(=O)c2cccc3cccnc23)C1 (stereo not given) 1.6

Hello, please tell me recorded inhibition for this one: CCCCSc1nc2c(c(=O)n1CC)SC(C)C2 (stereo not given) 0.125

Hello, please tell me recorded inhibition for this one: Cc1ccccc1-c1nc(CS(=O)CC(=O)NCCN2CCOCC2)c(C)o1 (stereo not given) 1.11
